Biological target: T1, RSV F glycoprotein (NUF4) (respiratory syncytial virus)
T1 chain 1: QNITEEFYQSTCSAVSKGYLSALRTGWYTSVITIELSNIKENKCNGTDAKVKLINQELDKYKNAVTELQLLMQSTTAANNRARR
T1 chain 2: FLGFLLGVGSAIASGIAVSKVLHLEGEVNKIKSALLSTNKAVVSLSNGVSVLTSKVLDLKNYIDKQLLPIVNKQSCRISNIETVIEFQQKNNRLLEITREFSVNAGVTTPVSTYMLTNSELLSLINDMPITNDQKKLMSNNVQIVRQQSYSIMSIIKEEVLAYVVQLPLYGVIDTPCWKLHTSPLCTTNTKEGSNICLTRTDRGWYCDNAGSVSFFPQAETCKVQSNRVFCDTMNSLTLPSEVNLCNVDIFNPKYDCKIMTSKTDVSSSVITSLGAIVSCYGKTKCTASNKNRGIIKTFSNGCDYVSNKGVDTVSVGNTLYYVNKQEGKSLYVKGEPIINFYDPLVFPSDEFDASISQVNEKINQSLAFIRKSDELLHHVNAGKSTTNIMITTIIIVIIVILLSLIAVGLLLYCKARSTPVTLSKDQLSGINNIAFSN
Test: SPR (BIAcore), mAb vs NUF4 (1:1)
Each item that follows carries a reported fold in parentheses (palivizumab = 1).
Express your answer in fold, writing the number without its unit.

A selection of reference data follows.
A4B4 IgG (antibody, V domains shown) VH: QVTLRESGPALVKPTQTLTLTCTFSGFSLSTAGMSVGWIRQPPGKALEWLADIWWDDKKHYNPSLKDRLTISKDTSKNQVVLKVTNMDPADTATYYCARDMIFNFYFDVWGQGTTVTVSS VL: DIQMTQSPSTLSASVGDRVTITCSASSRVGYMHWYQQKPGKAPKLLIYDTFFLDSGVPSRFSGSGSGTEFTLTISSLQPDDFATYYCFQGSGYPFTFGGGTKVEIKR
15
A13c4 IgG (antibody, V domains shown) VH: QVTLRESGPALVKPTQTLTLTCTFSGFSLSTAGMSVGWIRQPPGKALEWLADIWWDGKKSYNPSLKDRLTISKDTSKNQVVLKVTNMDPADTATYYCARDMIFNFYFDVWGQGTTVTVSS VL: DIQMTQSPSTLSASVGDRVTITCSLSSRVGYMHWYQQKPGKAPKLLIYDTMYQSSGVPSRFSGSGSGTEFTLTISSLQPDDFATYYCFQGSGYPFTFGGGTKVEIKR
12

// below: fold in parentheses (palivizumab = 1) requested for another binder
Ask | Recorded fold in parentheses (palivizumab = 1) for P11d4 IgG (antibody, V domains shown) VH: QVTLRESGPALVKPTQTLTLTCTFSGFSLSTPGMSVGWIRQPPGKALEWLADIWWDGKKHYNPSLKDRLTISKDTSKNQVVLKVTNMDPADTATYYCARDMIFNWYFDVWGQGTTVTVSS VL: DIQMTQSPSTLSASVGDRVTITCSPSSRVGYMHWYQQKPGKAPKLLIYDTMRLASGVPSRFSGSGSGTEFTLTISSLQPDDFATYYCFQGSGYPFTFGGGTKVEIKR , please?
Reply | 10
